# experimentalDetails: growth inhibitors of tim10-1 mutant yeast, primary screen, luminescence, uHTS (AID 463190);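 further: mutant grown at 25 °C; 0% = DMSO wells with yeast and 100% = wells holding no yeast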
# details: S. cerevisiae tim10-1 ts strain growth, BacTiter-Glo, 24 h; at 20 µM
The whole screen tested about 330,000 compounds, of which about 7,300 (2.2%) were called active.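 How the source made its calls: active means inhibition of at least 40%; inactive means the rest.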 This is one part of a sample in which actives are shown more often than they occur.
Outcome (select one): 1 (active), -1 (inactive)

Below, 4 compounds whose answers are already recorded.
[
  {
    "compound": "COc1ccc(CNC(=O)CCn2cccc2)cc1",
    "assignedClass": -1
  },
  {
    "compound": "COc1ccc(NC(=O)/C(C#N)=C\\c2cc(OC)c(OCc3ccc(C(=O)O)cc3)cc2Br)cc1",
    "assignedClass": -1
  },
  {
    "compound": "COc1ccc(CNC(=O)/C(C#N)=C/c2cccc(OC)c2OC)cc1",
    "assignedClass": 1
  },
  {
    "compound": "O=C(Nc1nnc(SCc2c(Cl)cccc2Cl)s1)C1CCCO1 (stereo not given)",
    "assignedClass": 1
  }
]

Let's switch to this compound now.
Look up the recorded call for COc1ccc(N2CCN(C(=O)COC(=O)c3cccc(S(=O)(=O)Nc4ccccc4OC)c3)CC2)cc1 in this test.
-1
